Origin of the recorded values: ChEMBL document CHEMBL4257496

# Measured on: Tyrosine-protein kinase BTK (Homo sapiens, UniProt Q06187)
# Sequence (Q06187 whole entry): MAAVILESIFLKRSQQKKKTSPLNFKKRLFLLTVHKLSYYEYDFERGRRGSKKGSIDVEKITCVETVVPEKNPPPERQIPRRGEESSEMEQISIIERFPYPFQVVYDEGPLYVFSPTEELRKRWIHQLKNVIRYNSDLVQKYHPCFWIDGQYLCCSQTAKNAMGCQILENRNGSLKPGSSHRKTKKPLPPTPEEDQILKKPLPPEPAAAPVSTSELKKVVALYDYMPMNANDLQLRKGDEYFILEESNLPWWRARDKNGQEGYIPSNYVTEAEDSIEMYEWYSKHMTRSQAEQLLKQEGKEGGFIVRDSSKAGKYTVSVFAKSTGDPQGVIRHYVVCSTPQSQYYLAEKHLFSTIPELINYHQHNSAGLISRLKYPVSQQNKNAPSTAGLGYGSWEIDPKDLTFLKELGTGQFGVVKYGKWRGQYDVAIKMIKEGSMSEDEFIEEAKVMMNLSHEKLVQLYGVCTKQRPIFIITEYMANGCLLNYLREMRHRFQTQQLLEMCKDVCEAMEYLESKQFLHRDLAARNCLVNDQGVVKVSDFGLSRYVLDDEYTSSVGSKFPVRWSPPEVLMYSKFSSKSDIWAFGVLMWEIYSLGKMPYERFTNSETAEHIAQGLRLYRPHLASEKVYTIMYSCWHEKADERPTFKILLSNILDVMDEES
# Protocol: Inhibition of recombinant human full-length N-terminal His6-tagged BTK expressed in baculovirus infected Sf21insect cells using poly (4:1 Glu, Tyr) as substrate measured after 1 hr by ELISA
pIC50: −log10 of the molar value.
Measured metric: pIC50

{"Test smiles": "C=CC(=O)Nc1cccc(-n2c(=O)c(=O)n(CCC)c3cnc(Nc4ccc(N5CCN(C)CC5)cc4OC)nc32)c1", "Number": 7.66}
{"Test smiles": "C=CC(=O)Nc1cccc(-n2c(=O)c(=O)n(C(C)C)c3cnc(Nc4ccc(N(C)CCN(C)C)cc4OC)nc32)c1", "Number": 7.68}
{"Test smiles": "C=CC(=O)Nc1cccc(-n2c(=O)c(=O)n(C(C)C)c3cnc(Nc4ccc(OCCN(C)C)cc4OC)nc32)c1", "Number": 7.50}
{"Test smiles": "C=CC(=O)Nc1cccc(-n2c(=O)c(=O)n(C(C)C)c3cnc(Nc4ccc(N5CCN(C)CC5)c(C)c4)nc32)c1", "Number": 8.72}
{"Test smiles": "C=CC(=O)Nc1cccc(-n2c(=O)c(=O)n(C)c3cnc(Nc4ccc(N5CCN(C)CC5)cc4OC)nc32)c1", "Number": 6.63}
{"Test smiles": "C=CC(=O)Nc1cccc(-n2c(=O)c(=O)n(C(C)C)c3cnc(Nc4ccc(N5CCC(N6CCN(C)CC6)CC5)cc4OC)nc32)c1", "Number": 7.89}
{"Test smiles": "C=CC(=O)Nc1cccc(-n2c(=O)c(=O)n(C(C)C)c3cnc(Nc4ccc(N5CCN(C)CC5)c(OC)c4)nc32)c1", "Number": 8.62}
{"Test smiles": "C=CC(=O)Nc1cccc(-n2c(=O)c(=O)n(C(C)C)c3cnc(Nc4ccc(N5CCN(C)CC5)cc4OC)nc32)c1", "Number": 7.32}
{"Test smiles": "C=CC(=O)Nc1cccc(-n2c(=O)c(=O)n(CC)c3cnc(Nc4ccc(N5CCN(C)CC5)cc4OC)nc32)c1", "Number": 7.76}
{"Test smiles": "C=CC(=O)Nc1cccc(-n2c(=O)c(=O)[nH]c3cnc(Nc4ccc(N5CCN(C)CC5)cc4OC)nc32)c1", "Number": 8.27}
